Source listed as ChEMBL document CHEMBL5131472.

assay: Cytotoxicity against dog MDCK cells assessed as reduction in cell viability incubated for 48 hrs by CellTiter96 Aqueous one solution assay; type: toxicity, cell-based, Canis lupus familiaris
quantity_measured: CC50 at 48 h (µM)

>>> reading("OC[C@H]1O[C@@H](c2nn3c4c(ncnc24)SCC3)[C@H](O)[C@@H]1O")
249
>>> reading("OC[C@H]1O[C@@H](c2n[nH]c3c(-n4ccnn4)ncnc23)[C@H](O)[C@@H]1O")
287
>>> reading("CSc1ncnc2c([C@@H]3O[C@H](CO)[C@@H](O)[C@H]3O)nn(C)c12")
205
>>> reading("C=CCSc1ncnc2c([C@@H]3O[C@H](CO)[C@@H](O)[C@H]3O)n[nH]c12")
412
>>> reading("Nc1ncnc2c([C@@H]3O[C@H](CO)[C@@H](O)[C@H]3O)[nH]nc12")
2.6
>>> reading("CN(C)c1ncnc2c([C@@H]3O[C@H](CO)[C@@H](O)[C@H]3O)n[nH]c12")
70
>>> reading("OC[C@H]1O[C@@H](c2n[nH]c3c(NC4CC4)ncnc23)[C@H](O)[C@@H]1O")
431
>>> reading("CSc1ncnc2c([C@@H]3O[C@H](CO)[C@@H](O)[C@H]3O)n[nH]c12")
9.3
>>> reading("OC[C@H]1O[C@@H](c2n[nH]c3c(SCC(F)(F)F)ncnc23)[C@H](O)[C@@H]1O")
64
>>> reading("O=c1[nH]cnc2c([C@@H]3O[C@H](CO)[C@@H](O)[C@H]3O)n[nH]c12")
68
